# Assay Target: T1, human transferrin receptor (recombinant, SPR) (human, UniProt P02786 89-760)
# T1 construct: also called huTfR; human transferrin receptor-biotinylated
# T1 sequence (P02786 89-760 limits assumed): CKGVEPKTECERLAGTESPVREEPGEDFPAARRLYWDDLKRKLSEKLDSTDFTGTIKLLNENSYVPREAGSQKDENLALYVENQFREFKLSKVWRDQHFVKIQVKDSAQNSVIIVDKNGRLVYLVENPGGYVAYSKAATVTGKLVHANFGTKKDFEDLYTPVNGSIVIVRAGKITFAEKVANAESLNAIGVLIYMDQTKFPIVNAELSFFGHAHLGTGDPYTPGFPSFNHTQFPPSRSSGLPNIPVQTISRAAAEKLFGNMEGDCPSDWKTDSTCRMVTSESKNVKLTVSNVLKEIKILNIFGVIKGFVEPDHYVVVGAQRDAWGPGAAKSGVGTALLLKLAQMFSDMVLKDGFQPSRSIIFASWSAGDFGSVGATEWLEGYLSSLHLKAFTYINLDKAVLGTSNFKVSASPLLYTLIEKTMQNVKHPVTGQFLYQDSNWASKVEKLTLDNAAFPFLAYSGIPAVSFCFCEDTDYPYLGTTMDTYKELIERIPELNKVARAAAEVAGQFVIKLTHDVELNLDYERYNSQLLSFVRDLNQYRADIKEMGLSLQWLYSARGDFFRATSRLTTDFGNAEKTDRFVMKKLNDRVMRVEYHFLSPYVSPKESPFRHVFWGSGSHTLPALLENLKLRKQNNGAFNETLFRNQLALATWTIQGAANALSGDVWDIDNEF
# Protocol Description: SPR 25C
For each entry below, report its koff value.

Query koff for 2/99 VH0(rb)/VL3 (antibody, V domains shown) VH: QSMEESGGRLVTPGTPLTLTCTVSGFSLSSYAMSWVRQAPGKGLEWIGYIWSGGSTDYASWAKGRFTISKTSTTVDLKITSPTTEDTATYFCARRYGTSYPDYGDANGFDPWGPGTLVTVSS VL: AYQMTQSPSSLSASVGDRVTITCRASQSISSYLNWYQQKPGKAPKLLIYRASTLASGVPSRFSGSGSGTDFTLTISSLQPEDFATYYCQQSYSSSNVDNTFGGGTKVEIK
0.00132 s⁻¹

Provide one value: measured koff of 2/99 VH7/VL9-NYA (antibody, V domains shown) VH: QQLVETGGGLIQPGGSLRLSCAASGFSLSSYAMSWVRQAPGKGLEWIGYIWSGGSTDYASWAKGRFTISRDNSKNTLYLQMNSLRAEDTAVYYCARRYGTSYPDYGDANGFDPWGQGTLVTVSS VL: AIQLTQSPSSLSASVGDRVTITCRASQSISSYLAWYQQKPGKAPKLLIYRASTLASGVPSRFSGSGSGTDFTLTISSLQPEDFATYYCQQNYASSNVDNTFGGGTKVEI
0.00121 s⁻¹

Please give the documented koff of 2/99 VH2/VL9-NYA (antibody, V domains shown) VH: EVQLVETGGGLIQPGGSLRLSCAASGFSLSSYAMSWVRQAPGKGLEWVGYIWSGGSTDYADSVKGRFTISRDNSKNTLYLQMNSLRAEDTAVYYCARRYGTSYPDYGDANGFDPWGQGTLVTVSS VL: AIQLTQSPSSLSASVGDRVTITCRASQSISSYLAWYQQKPGKAPKLLIYRASTLASGVPSRFSGSGSGTDFTLTISSLQPEDFATYYCQQNYASSNVDNTFGGGTKVEI
0.00221 s⁻¹

Output koff of 2/99 VH23-DANG/VL15 (antibody, V domains shown) VH: QSMQESGPGLVKPSQTLSLTCTVSGFSLSSYAMSWIRQHPGKGLEWIGYIWSGGSTDYASWAKSRVTISKTSTTVSLKLSSVTAADTAVYYCARRYGTSYPDYGDANGFDPWGQGTLVTVSS VL: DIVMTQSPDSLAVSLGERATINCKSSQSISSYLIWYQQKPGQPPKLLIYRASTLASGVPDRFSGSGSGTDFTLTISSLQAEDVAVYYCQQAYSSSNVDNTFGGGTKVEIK
0.000986 s⁻¹

Continuing:
Give recorded koff. 2/99 VH7/VL6 (antibody, V domains shown) VH: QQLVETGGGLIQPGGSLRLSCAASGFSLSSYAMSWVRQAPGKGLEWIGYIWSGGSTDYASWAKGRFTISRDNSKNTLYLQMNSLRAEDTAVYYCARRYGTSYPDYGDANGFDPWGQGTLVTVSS VL: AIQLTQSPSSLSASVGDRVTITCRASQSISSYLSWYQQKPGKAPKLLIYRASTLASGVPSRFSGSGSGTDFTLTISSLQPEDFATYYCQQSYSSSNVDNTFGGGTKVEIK
0.00197 s⁻¹
